Biological target: HCV NS3-NS4A protease (Hepatitis C virus genotype 1a)
Construct: The buffer, KK4A, DTT, and tNS3 were combined
Sequence (P27958 1658-1711): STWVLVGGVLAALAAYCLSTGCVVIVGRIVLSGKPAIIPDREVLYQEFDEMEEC
Sequence (P27958 1027-1208): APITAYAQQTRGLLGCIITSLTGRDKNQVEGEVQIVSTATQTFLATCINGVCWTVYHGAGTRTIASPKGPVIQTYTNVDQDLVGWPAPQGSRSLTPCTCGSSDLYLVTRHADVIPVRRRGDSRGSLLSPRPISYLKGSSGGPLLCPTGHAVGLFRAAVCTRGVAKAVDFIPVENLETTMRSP
Assay: HCV Ki Assay (enzyme, Example 5)
Conditions: Ki values, tested according to Example 5 (enzyme); 5AB substrate, tNS3 with KK4A
quantity.measured: Ki

Some solved entries appear below for comparison.
CCC[C@H](NC(=O)C1C[C@@H](Oc2cc(Cl)cc(Cl)c2)CN1C(=O)[C@@H](NC(=O)[C@@H](NC(=O)c1cnccn1)C1CCCCC1)C(C)(C)C)C(=O)C(=O)NC1CC1 (stereo partly drawn) ... 100 to 300 nM
CCC[C@H](NC(=O)[C@@H]1C[C@@H](Oc2ccnc3cc(C(F)(F)F)ccc23)CN1C(=O)[C@@H](NC(=O)[C@@H](NC(=O)c1cnccn1)C1CCCCC1)C(C)(C)C)C(=O)C(=O)NC1CC1 ... < 100 nM
CCC[C@H](NC(=O)[C@@H]1C[C@@H](Oc2ccc([N+](=O)[O-])cc2)CN1C(=O)[C@@H](NC(=O)[C@@H](NC(=O)c1cnccn1)C1CCCCC1)C(C)(C)C)C(=O)C(=O)NC1CC1 ... < 100 nM
CCC[C@H](NC(=O)[C@@H]1C[C@@H](Oc2cccc(S(=O)(=O)NC)c2)CN1C(=O)[C@@H](NC(=O)[C@@H](NC(=O)c1cnccn1)C1CCCCC1)C(C)(C)C)C(=O)C(=O)NC1CC1 ... > 300 nM

The molecule CCC[C@H](NC(=O)C1C[C@@H](Oc2ccccc2OC(F)(F)F)CN1C(=O)[C@@H](NC(=O)[C@@H](NC(=O)c1cnccn1)C1CCCCC1)C(C)(C)C)C(=O)C(=O)NC1CC1 (stereo partly drawn) showed Ki equal to > 300 nM

The molecule `CCC[C@H](NC(=O)[C@@H]1C[C@@H](Oc2ccncn2)CN1C(=O)[C@@H](NC(=O)[C@@H](NC(=O)c1cnccn1)C1CCCCC1)C(C)(C)C)C(=O)C(=O)NC1CC1` showed Ki equal to 100 to 300 nM
